Provenance of the data: patent US4452786A

System: Ehrlich carcinoma
Assay: Screening test against Ehrlich carcinoma, subcutaneous solid type, in mice (T/C of tumor weight on thirtieth day)
Type: in vivo, ddy male mice
Conditions: 16 mg/kg × 10 times, intraperitoneally, once per day for ten days; average tumor weight on thirtieth day
Note to self: use yes only for T/C (%) readings below 30%; a reading exactly at 30% still gets no.

Below, 4 compounds whose answers are already recorded.
INSERT INTO measurements (compound, label) VALUES
  ('COC1CC(OC2CCC3(C)C(CCC4C3C(OC(=O)C=Cc3ccccc3)C(OC(C)=O)C35COC(C)(OC)C3CCC45O)C2)OC(C)C1OC1CC(OC)C(OC2OC(C)C(OC3OC(CO)C(O)C(O)C3O)C(OC)C2O)C(C)O1 (stereo not drawn) [20-Iso-O-methyl-condurango glycoside Do, 20-iso-O-methyl-condurango glycoside Do]', 'yes'),
  ('COC1CC(OC2CCC3(C)C(CCC4C3C(OC(=O)C=Cc3ccccc3)C(OC(C)=O)C3(C)C(C(C)=O)CCC43O)C2)OC(C)C1OC1CC(OC)C(OC2OC(C)C(OC3OC(CO)C(O)C(O)C3O)C(OC)C2O)C(C)O1 (stereo not drawn) [Condurango glycoside Ao, condurango glycoside Ao]', 'yes'),
  ('COC1CC(OC2CCC3(C)C(CCC4C3C(OC(=O)C=Cc3ccccc3)C(OC(C)=O)C35COC6(C)OC43CCC65)C2)OC(C)C1OC1CC(OC)C(OC2OC(C)C(OC3OC(CO)C(O)C(O)C3O)C(OC)C2O)C(C)O1 (stereo not drawn) [Condurango glycoside Bo, condurango glycoside Bo]', 'yes'),
  ('COC1CC(OC2CCC3(C)C(CCC4C3C(OC(=O)C=Cc3ccccc3)C(OC(C)=O)C35COC(C)(OC)C3CCC45O)C2)OC(C)C1OC1CC(OC)C(OC2OC(C)C(OC3OC(CO)C(O)C(O)C3O)C(OC)C2O)C(C)O1 (stereo not drawn) [20-O-methyl-condurango glycoside Do]', 'yes');

# evaluate next
Exercise: I'd appreciate it if you could check whether COC1CC(OC2CCC3(C)C(CCC4C3C(OC(=O)C=Cc3ccccc3)C(OC(C)=O)C35COC(C)(O)C3CCC45O)C2)OC(C)C1OC1CC(OC)C(OC2OC(C)C(OC3OC(CO)C(O)C(O)C3O)C(OC)C2O)C(C)O1 (stereo not drawn) [Condurango glycoside Do, condurango glycoside Do] has T/C (%) smaller than 30%.
Key: no

---

Tested on: Ehrlich carcinoma
Assay: Screening test against Ehrlich carcinoma, subcutaneous solid type, in mice (T/C of tumor weight on thirtieth day)
Format: in vivo, ddy male mice
Conditions: 32 mg/kg × 10 times, intraperitoneally, once per day for ten days; average tumor weight on thirtieth day
Measurement label: T/C (%)
Value expressed in %; do not type the unit.

Exercise: State T/C (%) on Ehrlich carcinoma. Entry: COC1CC(OC2CCC3(C)C(CCC4C3C(OC(=O)C=Cc3ccccc3)C(OC(C)=O)C35COC(C)(O)C3CCC45O)C2)OC(C)C1OC1CC(OC)C(OC2OC(C)C(OC3OC(CO)C(O)C(O)C3O)C(OC)C2O)C(C)O1 (stereo not shown) [Condurango glycoside Do, condurango glycoside Do]
Key: 9.5

Exercise: Tell me T/C (%) of COC1CC(OC2CCC3(C)C(CCC4C3C(OC(=O)C=Cc3ccccc3)C(OC(C)=O)C35COC6(C)OC43CCC65)C2)OC(C)C1OC1CC(OC)C(OC2OC(C)C(OC3OC(CO)C(O)C(O)C3O)C(OC)C2O)C(C)O1 (stereo not shown) [Condurango glycoside Bo, condurango glycoside Bo] when tested on Ehrlich carcinoma.
Key: 10.0

Exercise: Please respond with reported T/C (%) (system Ehrlich carcinoma) for COC1CC(OC2CCC3(C)C(CCC4C3C(OC(=O)C=Cc3ccccc3)C(OC(C)=O)C3(C)C(C(C)O)CCC43O)C2)OC(C)C1OC1CC(OC)C(OC2OC(C)C(OC3OC(CO)C(O)C(O)C3O)C(OC)C2O)C(C)O1 (stereo not shown) [Condurango glycoside Co, condurango glycoside Co] .
Key: 20.1

Exercise: Give T/C (%) for this entry on Ehrlich carcinoma: COC1CC(OC2CCC3(C)C(CCC4C3C(OC(=O)C=Cc3ccccc3)C(OC(C)=O)C35COC(C)(OC)C3CCC45O)C2)OC(C)C1OC1CC(OC)C(OC2OC(C)C(OC3OC(CO)C(O)C(O)C3O)C(OC)C2O)C(C)O1 (stereo not shown) [20-Iso-O-methyl-condurango glycoside Do, 20-iso-O-methyl-condurango glycoside Do]
Key: 18.0
